Listing of entries alongside the reported TL1A Binding Level (Early).
- TARGET UNDER TEST: T1, human TL1A extracellular domain with N-terminal HIS and FLAG tag (human, UniProt O95150 72-251)
- T1 construct: whole entry named. ~70 kDa fraction purified by gel filtration
- T1 sequence: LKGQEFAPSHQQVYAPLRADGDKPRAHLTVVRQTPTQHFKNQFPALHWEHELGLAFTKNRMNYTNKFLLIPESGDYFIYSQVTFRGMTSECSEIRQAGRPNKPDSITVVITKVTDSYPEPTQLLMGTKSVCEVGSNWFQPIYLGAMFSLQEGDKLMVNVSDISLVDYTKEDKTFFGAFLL
- METHOD: SPR run 3; supernatant on Protein A; TL1A 10 ug/mL; timepoint 59
Output spec: scalar in RU, unitless text.

Worked cases, answers included:
Sure, the documented TL1A Binding Level (Early) for 320-295 (antibody, human IgG1, name in Kabat numbering, V domains shown, human IgG1, lambda) VH: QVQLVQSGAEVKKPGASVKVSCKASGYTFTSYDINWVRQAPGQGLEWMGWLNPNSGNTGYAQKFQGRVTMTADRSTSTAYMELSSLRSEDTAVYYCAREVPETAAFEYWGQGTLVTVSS VL: QSVLTQPPSVSGAPGQRVTISCTSSSSDIGAGLGQHWYQQLPGTAPKLLIEGYYNRPSGVPDRFSGSKSGTSASLTITGLLPEDEGDYYCQSYDGTLSALFGGGTKLTVLG is 109

Sure, the documented TL1A Binding Level (Early) for 320-308 (antibody, human IgG1, name in Kabat numbering, V domains shown, human IgG1, lambda) VH: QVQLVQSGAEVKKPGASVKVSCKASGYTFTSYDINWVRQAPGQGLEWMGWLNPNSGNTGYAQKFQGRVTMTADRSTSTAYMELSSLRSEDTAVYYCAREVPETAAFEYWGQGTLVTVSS VL: QSVLTQPPSVSGAPGQRVTISCTSSSSDIGAGLGVWWYQQLPGTAPKLLIEGYYNRPSGVPDRFSGSKSGTSASLTITGLLPEDEGDYYCQSYDGTLSALFGGGTKLTVLG is 106

Others:
Sure, the documented TL1A Binding Level (Early) for 320-281 (antibody, human IgG1, name in Kabat numbering, V domains shown, human IgG1, lambda) VH: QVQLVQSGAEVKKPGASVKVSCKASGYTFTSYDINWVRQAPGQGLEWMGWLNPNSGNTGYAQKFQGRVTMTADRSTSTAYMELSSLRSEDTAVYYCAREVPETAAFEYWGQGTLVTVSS VL: QSVLTQPPSVSGAPGQRVTISCTSSSSDIGAGKGVHWYQQLPGTAPKLLIEGYYNRPSGVPDRFSGSKSGTSASLTITGLLPEDEGDYYCQSYDGTLSALFGGGTKLTVLG is 22

Sure, the documented TL1A Binding Level (Early) for 320-309 (antibody, human IgG1, name in Kabat numbering, V domains shown, human IgG1, lambda) VH: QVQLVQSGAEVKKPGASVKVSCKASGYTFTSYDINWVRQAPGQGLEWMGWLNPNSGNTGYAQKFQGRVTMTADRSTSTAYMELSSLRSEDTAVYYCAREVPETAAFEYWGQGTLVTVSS VL: QSVLTQPPSVSGAPGQRVTISCTSSSSDIGAGLGVYWYQQLPGTAPKLLIEGYYNRPSGVPDRFSGSKSGTSASLTITGLLPEDEGDYYCQSYDGTLSALFGGGTKLTVLG is 47

Sure, the documented TL1A Binding Level (Early) for 320-306 (antibody, human IgG1, name in Kabat numbering, V domains shown, human IgG1, lambda) VH: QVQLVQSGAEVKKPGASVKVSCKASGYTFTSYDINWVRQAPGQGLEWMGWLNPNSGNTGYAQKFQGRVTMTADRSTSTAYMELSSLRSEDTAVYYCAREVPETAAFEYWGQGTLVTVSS VL: QSVLTQPPSVSGAPGQRVTISCTSSSSDIGAGLGVKWYQQLPGTAPKLLIEGYYNRPSGVPDRFSGSKSGTSASLTITGLLPEDEGDYYCQSYDGTLSALFGGGTKLTVLG is 147

Sure, the documented TL1A Binding Level (Early) for 320-297 (antibody, human IgG1, name in Kabat numbering, V domains shown, human IgG1, lambda) VH: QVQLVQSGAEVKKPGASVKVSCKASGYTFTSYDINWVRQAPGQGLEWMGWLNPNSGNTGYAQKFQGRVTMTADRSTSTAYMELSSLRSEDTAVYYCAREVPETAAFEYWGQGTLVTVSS VL: QSVLTQPPSVSGAPGQRVTISCTSSSSDIGAGLGHHWYQQLPGTAPKLLIEGYYNRPSGVPDRFSGSKSGTSASLTITGLLPEDEGDYYCQSYDGTLSALFGGGTKLTVLG is 95

Sure, the documented TL1A Binding Level (Early) for 320-276 (antibody, human IgG1, name in Kabat numbering, V domains shown, human IgG1, lambda) VH: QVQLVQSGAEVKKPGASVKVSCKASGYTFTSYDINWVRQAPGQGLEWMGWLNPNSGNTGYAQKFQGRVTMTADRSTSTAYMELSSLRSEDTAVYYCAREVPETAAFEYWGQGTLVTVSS VL: QSVLTQPPSVSGAPGQRVTISCTSSSSDIGAGAGVHWYQQLPGTAPKLLIEGYYNRPSGVPDRFSGSKSGTSASLTITGLLPEDEGDYYCQSYDGTLSALFGGGTKLTVLG is 244
